Origin of measurements: paper PMC8365602

- TARGET_OR_SYSTEM: UniProtKB P09917
- PROTOCOL_DETAILS: 5-LOX product formation in activated PMNL;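 further: freshly isolated human PMNL in PBS pH 7.4 plus glucose, preincubated 10 min at 37 °C with compound, 5-LOX products (all-trans LTB4 isomers, 5-HETE) quantified by RP-HPLC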
- EXPERIMENTAL_CONTEXT: read-out: 5-LOX PMNL IC50; 5-LOX product formation in activated PMNL; mean ± SEM
MEASURE_NAME: log10(IC50) (log10 of the value in nM)
Log10 applied to IC50; unit prior to transform: nM.

MOLECULE	log10(IC50)
C/C(=C\CC/C(C)=C/CC[C@]1(C)CCc2cc(O)cc(C)c2O1)CC/C=C/C(=O)O	3.34

Query block: Recorded log10(IC50) of CC(=O)c1cc2c(C)c3c(c(C)c2oc1=O)CC[C@@](C)(CC/C=C(\C)CC/C=C(\C)CCC=C(CO)CO)O3 , please.
Result block: 3.10

Query block: Quick one: C/C(=C\CC/C(C)=C/CC[C@]1(C)CCc2c(C)c(O)c(C=O)c(C)c2O1)CCC=C(CO)CO
Result block: 3.14

Query block: What do you get for C/C(=C\CC/C(C)=C/CC[C@]1(C)CCc2c(C)c(O)cc(C)c2O1)CCC=C(CO)CO [Compound 27b] ?
Result block: 2.00

Query block: Can you check C/C(=C\CC/C(C)=C/CC[C@]1(C)CCc2cc(O)cc(C)c2O1)CCC=C(CO)CO [Compound 27d, δ-amplexichromanol] next?
Result block: 2.63

###

- TARGET_OR_SYSTEM: 5-LOX (Homo sapiens)
- Sequence (P09917 whole entry): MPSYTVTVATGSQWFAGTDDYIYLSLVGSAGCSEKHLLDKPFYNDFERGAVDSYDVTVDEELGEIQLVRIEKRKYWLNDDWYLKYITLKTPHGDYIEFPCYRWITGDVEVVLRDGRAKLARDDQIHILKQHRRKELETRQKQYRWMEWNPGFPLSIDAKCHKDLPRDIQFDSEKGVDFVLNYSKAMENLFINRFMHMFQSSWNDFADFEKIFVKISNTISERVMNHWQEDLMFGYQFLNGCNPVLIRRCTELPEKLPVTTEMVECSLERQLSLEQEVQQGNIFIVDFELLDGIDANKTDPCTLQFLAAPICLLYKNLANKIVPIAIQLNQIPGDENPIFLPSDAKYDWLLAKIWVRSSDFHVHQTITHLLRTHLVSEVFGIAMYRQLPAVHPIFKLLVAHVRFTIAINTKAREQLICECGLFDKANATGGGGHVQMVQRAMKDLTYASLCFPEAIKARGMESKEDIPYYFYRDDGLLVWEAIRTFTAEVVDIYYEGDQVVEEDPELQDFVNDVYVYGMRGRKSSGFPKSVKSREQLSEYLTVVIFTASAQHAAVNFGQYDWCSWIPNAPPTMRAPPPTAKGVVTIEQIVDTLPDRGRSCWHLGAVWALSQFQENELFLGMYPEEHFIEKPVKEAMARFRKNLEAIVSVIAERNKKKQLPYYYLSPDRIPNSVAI
- PROTOCOL_DETAILS: Cell-free 5-LOX activity (isolated human recombinant enzyme)
- EXPERIMENTAL_CONTEXT: read-out: 5-LOX enzyme residual activity at 1 μM
MEASURE_NAME: remaining activity at 1 µM (%)
State the answer as a number, implicitly in %.

Worked set:
COMPOUND	TARGET_OR_SYSTEM	OBSERVED_VALUE
C/C(=C\CC/C(C)=C/CC[C@]1(C)CCc2cc(O)c(C)c(C)c2O1)CCC=C(CO)CO [Compound 27c]	5-LOX (Homo sapiens)	0.1
CC(=O)c1cc2c3c(c(C)cc2oc1=O)O[C@](C)(CC/C=C(\C)CC/C=C(\C)CCC=C(CO)CO)CC3 [Compound 42]	5-LOX (Homo sapiens)	23.3
C/C(=C\CC/C(C)=C/CC[C@]1(C)CCc2c(C)c(O)c(C)c(C)c2O1)CCC=C(CO)CO [Compound 27a, α-amplexichromanol]	5-LOX (Homo sapiens)	0.1
C/C(=C\CC/C(C)=C/CC[C@]1(C)CCc2cc(O)cc(C)c2O1)CC/C=C/C(=O)O [Compound 14]	5-LOX (Homo sapiens)	24.5
COc1ccc(C2OCC(=CCC/C(C)=C/CC/C(C)=C/CC[C@]3(C)CCc4c(C)c(O)c(C=O)c(C)c4O3)CO2)cc1OC (stereo partly drawn) [Compound 47]	5-LOX (Homo sapiens)	58.7
C/C(=C\CC/C(C)=C/CC[C@]1(C)CCc2cc(O)cc(C)c2O1)CCC=C(CO)CO [Compound 27d, δ-amplexichromanol]	5-LOX (Homo sapiens)	1.8
C/C(=C\CC/C(C)=C/CC[C@]1(C)CCc2c(CN3CCN(C)CC3)c(O)cc(C)c2O1)CCC=C(CO)CO [Compound 39]	5-LOX (Homo sapiens)	16
C/C(=C\CC/C(C)=C/CC[C@]1(C)CCc2cc(OCC(N)=O)cc(C)c2O1)CCC=C(CO)CO [Compound 32]	5-LOX (Homo sapiens)	99.8

Query block: Lab note: need remaining activity at 1 µM for COC(=O)C(C)CCC/C(C)=C/CC/C(C)=C/CC[C@]1(C)CCc2cc(O)cc(C)c2O1 (stereo partly drawn) [Compound 21] on 5-LOX (Homo sapiens), anyone have it?
Result block: 5.8

Query block: Try this compound too: C/C(=C\CC[C@]1(C)CCc2cc(O)cc(C)c2O1)CCC=C(CO)CO [Compound 28]
Result block: 15

Query block: Now give it for COc1cc(C)c2c(c1)CC[C@@](C)(CC/C=C(\C)CC/C=C(\C)CCCC(C)C(=O)O)O2 (stereo partly drawn) [Compound 20] too.
Result block: 98.1

Query block: Lookup C/C(=C\CC[C@]1(C)CCc2cc(O)cc(C)c2O1)CCC(O)C(C)(O)CCC=C(CO)CO (stereo partly drawn) [Compound 30]
Result block: 12.2

Query block: Next compound: C/C(=C\CC/C(C)=C/CC[C@]1(C)CCc2c(CN3CCCCC3)c(O)cc(C)c2O1)CCC=C(CO)CO [Compound 38]
Result block: 5.1

Query block: Note, next up: COc1ccc(C2OCC(=CCC/C(C)=C/CC/C(C)=C/CC[C@]3(C)CCc4cc(OCCCC(=O)O)cc(C)c4O3)CO2)cc1OC (stereo partly drawn) [Compound 45]
Result block: 83

Query block: What do you have for Cc1cc(O)cc2c1O[C@](C)(CCCC(C)CCCC(C)CCCC(C)C(=O)O)CC2 (stereo partly drawn) [Compound 12b] ?
Result block: 51.4
